Assay: blockers of Ca2+-induced mitochondrial swelling – biochemical, isolated mouse mitochondria, absorbance, primary screen (AID 602449);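 note: 0% = DMSO wells given calcium and 100% = 1 mM EGTA wells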
Conditions: 30 min, at 10 µM
Screen size: about 360,000 compounds; about 5,000 (1.4%) were called active.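 Rule for the calls: active = inhibition of 50% or more, scaled per plate between neutral and stimulator controls; inactive = the rest.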 The sample as a whole holds a higher share of actives than the screen did.
# output must be one of YES for active, NO for inactive

[ask] Which outcome was assigned to CCCN(Cc1cc2cccc(C)c2[nH]c1=O)S(C)(=O)=O in this test?
[reply] NO

[ask] What was the test verdict on Cc1ccc(C)c(S(=O)(=O)N2CCN(CC(=O)Nc3ccc([N+](=O)[O-])cc3)CC2)c1 ?
[reply] NO

[ask] Record lookup: outcome of this test for Cc1ccc(C(=O)NCC(=O)NCc2cc(=O)n(C)c(=O)n2C)cc1 ?
[reply] NO

[ask] For O=C(CCC(=O)N1CCN(S(=O)(=O)c2ccc(Cl)cc2)CC1)NCc1cccc(C(F)(F)F)c1 , which call appears in the assay record?
[reply] NO

[ask] Would you mind telling me which call this test gave O=C(NCc1ccc(F)cc1)C(c1ccccc1)N(C(=O)c1csnn1)C1CC1 (stereo not drawn) ?
[reply] NO

[ask] Please indicate how the test categorized O=C(c1ccncc1)N1CCN(S(=O)(=O)c2cccc([N+](=O)[O-])c2)CC1 .
[reply] NO

[ask] Answer briefly: the call reported for O=C(Cc1ccccc1)N1CCN(S(=O)(=O)c2ccc([N+](=O)[O-])cc2)CC1 in this assay.
[reply] NO

[ask] Outcome? COCCn1c(SCC(=O)Nc2cc(OC)ccc2OC)nc2c(c1=O)SC(C)C2 (stereo not drawn)
[reply] NO

[ask] Hi, do you know how O=C(O)/C=C/c1ccc(S(=O)(=O)N2CCCCCC2)cc1 came out in this test?
[reply] NO

[ask] // return assay outcome for O=C(CSCc1ccc(Br)cc1)Nc1ccc(S(=O)(=O)N2CCCCCC2)cc1
[reply] YES

[ask] Which outcome was entered for the compound CC/C(=N\NC(=S)NC(C)C)c1ccc(OC(F)F)cc1 in this test?
[reply] NO

[ask] State the result this test recorded for O=C(CN1CCCCCC1)Nc1ccc(S(=O)(=O)N2CCCCC2)cc1 .
[reply] NO

[ask] How was O=[N+]([O-])c1cccc(C=NN=Cc2ccccc2O)c1 classified in this test?
[reply] NO

[ask] Could you check what this test reported for O=C(NCc1ccc2c(c1)OCO2)C12CC3CC(CC(C3)C1)C2 ?
[reply] NO

[ask] Any idea what this test logged for O=C(Cc1ccsc1)N1CCN(S(=O)(=O)c2cc(C(F)(F)F)cc(C(F)(F)F)c2)CC1 ?
[reply] YES

[ask] Please let me know the test result on file for CC(NC(=S)Nc1ccc(OC(F)F)cc1)c1ccc(F)cc1 (stereo not drawn) .
[reply] YES

[ask] Please indicate how the test categorized O=C(OCC(=O)N1CCCCCC1)c1cccc(Cl)c1Cl .
[reply] NO

[ask] // return assay outcome for CC(C)CC(COCc1ccc(Cl)cc1)N1CCN(C(=O)c2ccc(C(F)(F)F)cc2)CCC1=O (stereo not drawn)
[reply] NO

[ask] Assay result, entry CN1CCN(c2ccc([N+](=O)[O-])c(Sc3nc4ccccc4[nH]3)c2)CC1 — outcome?
[reply] NO

[ask] What did the test return for O=C(Nn1cnc2ccccc2c1=O)c1ccc(F)cc1Cl ?
[reply] NO

[ask] Kindly provide the recorded test outcome for the following compound: O=[N+]([O-])c1cc(Br)c(O)c(/C=N/Nc2nc3ccccc3s2)c1
[reply] YES

[ask] Could you please tell me the result logged for Cc1ccc(C(=O)OCC(=O)NC2CCCCCCC2)cc1C in this assay?
[reply] NO

[ask] Outcome logged for O=C(COc1ccc(Cl)cc1)NCCS(=O)(=O)N1CCN(c2ccc(F)cc2)CC1 in this assay:
[reply] NO

[ask] What did the test return for Cn1nnnc1SCC(=O)Nc1cccc(S(=O)(=O)N2CCCCC2)c1 ?
[reply] NO

[ask] What outcome does the record of this test show for O=C(NCCCc1ccccc1)C1CCC(CNc2c(N3CCCCC3)c(=O)c2=O)CC1 (stereo not drawn) ?
[reply] NO

[ask] For COc1ccc(/C=C/C(=O)c2c(O)cc(OC)cc2OC)cc1 , what call appears in the results of this test?
[reply] NO

[ask] Give the logged outcome of this assay for the following compound: COC(=O)c1ccc(OCC(O)CN(CCO)CC(O)Cn2ccc3ccccc32)cc1 (stereo not drawn)
[reply] NO

[ask] Field: outcome | Entry: CC(=O)NC(CC(=O)Nc1ccc(S(=O)(=O)N2CCOCC2)cc1)c1ccccc1 (stereo not drawn)
[reply] NO

[ask] Hi, do you know how COc1ccc2oc(-c3cccc(NC(=O)CSc4ccc(Cl)cc4)c3)nc2c1 came out in this test?
[reply] YES

[ask] Assay outcome for O=C(c1ccncc1)N1CCN(S(=O)(=O)c2cc(C(F)(F)F)cc(C(F)(F)F)c2)CC1 : what was it?
[reply] YES

[ask] Check the results log: what was the call for Cc1nccn1CCC1CCCCN1C(=O)CCc1nnc(-c2ccsc2)o1 (stereo not drawn) ?
[reply] NO

[ask] What is the recorded call for this compound in the test? O=C(NNC(=S)NC1CCCCC1)c1ccccc1Cl
[reply] NO

[ask] Test call, this compound: Cc1ccc(S(=O)(=O)NC2CCCCCC2)cc1C(N)=O
[reply] NO

[ask] So what was the verdict on Cc1cc(C)c(NC(=O)c2oc3ccccc3c2COc2ccccc2)c(C)c1 in this test?
[reply] NO

[ask] Hello, I am checking results. What call was entered for O=C(Cn1nnc2ccccc2c1=O)NCc1ccc(Cl)cc1 ?
[reply] NO

[ask] For CCC(C)N1C(=O)S/C(=C/c2ccc(Sc3nc4ccccc4[nH]3)o2)C1=O (stereo not drawn) , which call appears in the assay record?
[reply] YES

[ask] Recorded test call requested for CC(C)(C)c1ccc(CCC2OCC(CN3CCOCC3)O2)cc1 (stereo not drawn)
[reply] NO

[ask] // return assay outcome for COc1cccc(NC(=O)CSc2nnc(-c3cccnc3)o2)c1
[reply] NO

[ask] Given COCCN(C(=O)CCC(=O)Nc1nccs1)C(C(=O)NC(C)(C)C)c1ccc(Cl)cc1 (stereo not drawn) , state the outcome it received in this test.
[reply] NO

[ask] What is the recorded call for this compound in the test? Cc1ccc(C)c(S(=O)(=O)n2cnc3ccccc32)c1
[reply] NO

[ask] Outcome? Cc1ccccc1N1CC(C(=O)Nc2ccc(S(=O)(=O)N3CCCC3)cc2)CC1=O (stereo not drawn)
[reply] NO

[ask] Write down the call the test reported for this compound. Item: Cc1nc(Nc2ccccc2C)c2cnn(C)c2n1
[reply] NO

[ask] Kindly provide the recorded test outcome for the following compound: O=[N+]([O-])c1c(NCCO)cc(Sc2nc3ccccc3s2)c2nonc12
[reply] NO

* * *

Test: blockers of Ca2+-induced mitochondrial swelling – biochemical, isolated mouse mitochondria, absorbance, primary screen (AID 602449);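 note: 0% = DMSO wells given calcium and 100% = 1 mM EGTA wells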
Conditions: 30 min, at 10 µM, stronger effect = higher value
Hit rate of the full screen: of about 360,000 compounds, about 5,000 (1.4%) were called active. The entries come from a sample that favours actives as a whole.
measured-metric: inhibition

[ask] Record request: inhibition value, item CSc1nccc(NC(=O)c2ccc(C(C)(C)C)cc2)n1
[reply] 95.6% (active)

[ask] # query: inhibition of entry COc1ccccc1N(C(=O)Cn1nnc2ccccc21)C(C(=O)NCc1ccco1)c1ccc(C)o1 (stereo not given)
[reply] 4% (inactive)

[ask] Returns the measured inhibition for the input compound. Input: CCc1nn(CC(=O)N2CCN(CC)CC2)c(=O)c2cccn12
[reply] -0.4% (inactive)

[ask] Requested read-out: inhibition. Entry: Cc1cc(C)cc(OCC(=O)Nc2ccc(S(=O)(=O)Nc3ccccn3)cc2)c1
[reply] 3.7% (inactive)

[ask] Query: inhibition; subject: Nc1nnc(SCC(=O)Nc2ccc3nc(SCC(=O)Nc4ccccc4)sc3c2)s1
[reply] 95.5% (active)

[ask] Entry under review: O=C(Cc1ccc(-n2c(=O)[nH]c3ccccc3c2=O)cc1)N1CCN(c2cccc(Cl)c2)CC1 . Reported inhibition?
[reply] 53% (active)

[ask] // inhibition lookup, key: CCOC(=O)N1CCN(C(=O)Cc2ccc(-n3c(=S)[nH]c4ccccc4c3=O)cc2)CC1
[reply] -1.2% (inactive)

[ask] Tell me the measured inhibition of CS(=O)(=O)c1sc(C(=O)NC(=S)Nc2ccc(OC(F)(F)F)cc2)c2c1C=CCC2 , please.
[reply] 53.1% (active)

[ask] Any idea what its inhibition is? The compound is COc1cc(NS(=O)(=O)c2ccc(NC(=S)NC(=O)c3ccccc3)cc2)nc(OC)n1
[reply] -1.6% (inactive)

[ask] Item COC(=O)c1nc(NC(=O)c2ccc(F)cc2)n[nH]1 has what recorded inhibition?
[reply] 11.4% (inactive)

* * *

Experiment: blockers of Ca2+-induced mitochondrial swelling – biochemical, isolated mouse mitochondria, absorbance, primary screen (AID 602449);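 note: 0% = DMSO wells given calcium and 100% = 1 mM EGTA wells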
Details: 30 min, at 10 µM, stronger effect = higher value
The campaign covered roughly 360,000 compounds. About 5,000 (1.4%) were called active. Only a selection was taken, and actives are over-represented in it overall.
Can you tell me inhibition for the items I'm about to list?
State the answer as a number, implicitly in %.

[ask] What does the record list as inhibition for COc1cc(N2CCCC2)c(OC)cc1/C=C(/C#N)c1cccc(Br)c1 ?
[reply] 1.4

[ask] // lookup inhibition for CN(C)Cc1ccccc1C1(O)c2ccccc2CSc2ccccc21 (configuration not stated)
[reply] 52.8

[ask] What value of inhibition has been recorded for this entry: CCCCn1c(N)c(N(CC(C)C)C(=O)c2ccc(Br)o2)c(=O)[nH]c1=O
[reply] -1.5

[ask] Recorded inhibition for CS(=O)(=O)N(CC(=O)Nc1ccc(Cl)c(Cl)c1)C1CCCCC1 , please?
[reply] 61.3

[ask] State the recorded inhibition for this entry: Cc1cccc(NC(=O)NC2(C)CCS(=O)(=O)C2)c1 (configuration not stated)
[reply] -3.1

[ask] Which inhibition value is on record for CS(=O)(=O)N(CC(=O)Nc1ccc(F)cc1)C1CCCCC1 ?
[reply] 1.1

[ask] Please give the measured inhibition for this molecule: O=C(Cc1ccccc1)Nc1c(C(=O)N2CCCCCC2)cnn1-c1ccccc1
[reply] -1.2

[ask] For the molecule CC1(C)S[C@@H]2[C@H](NC(=O)COc3ccccc3)C(=O)N2C1C(=O)OCc1ccccc1 (some centres not stated) , what inhibition is on record?
[reply] 2.2

[ask] State the recorded inhibition for this entry: CCN1N=C(c2ccccc2)CCC1=O
[reply] -2.4

[ask] What does the data say about its inhibition? Entry: CC1(C(=O)NS(=O)(=O)c2cccs2)CCN1C(=O)Cc1ccc(-c2ccccc2)cc1 (configuration not stated)
[reply] 1.6

[ask] Requested read-out: inhibition. Entry: COc1cc(C2C(N3C(=O)c4ccccc4C3=O)C(=O)N2c2ccc(C)c(C)c2)cc(OC)c1OC (configuration not stated)
[reply] 3

[ask] Suppose we examine the molecule O=C1NC(=O)C2C1C(c1ccc([N+](=O)[O-])cc1)=NN2Cc1ccccc1 (configuration not stated) ; what inhibition value has been reported?
[reply] 0.1

[ask] Which value of inhibition has been reported for CCc1cccc(NC(=S)N(CCN(C)C)C2CCN(C(C)C)CC2)c1 in the records?
[reply] -1.2

[ask] For the molecule shown here, Cc1cccc(NC(=O)Nc2cccc(Oc3c(F)c(F)c(F)c(F)c3F)c2)c1 , give the reported inhibition.
[reply] 93.2

[ask] Item under review: CCOC(=O)c1ccc(NC(=O)CCn2c(=O)oc3ccccc32)cc1 . Reported inhibition?
[reply] 0.1

[ask] Tell me the measured inhibition of Cc1ccoc1C(=O)Nc1cccc(Oc2ccccc2)c1 , please.
[reply] -0.1

[ask] GET /values?readout=inhibition&item= Cc1ccc(NS(=O)(=O)c2ccc(F)cc2)nc1
[reply] -0.6

[ask] Recorded inhibition of S=C(Nc1cccc(Br)c1)N1CCn2cccc2C1c1cccnc1 (configuration not stated) , please.
[reply] 63.5

[ask] Name the recorded inhibition for CCn1nnc(NC(=O)c2c(OC)cccc2OC)n1 .
[reply] -1

[ask] # query: inhibition of entry COc1ccc(C(=O)C2CCCN(C(=O)c3cc(C)on3)C2)cc1F (configuration not stated)
[reply] -1.4

[ask] Fill in the blank: the reported inhibition of CN(NS(=O)(=O)c1cccs1)c1ncc(C(F)(F)F)cc1Cl is ____.
[reply] 2.5

[ask] Suppose we examine the molecule COc1ccc(CCOC(=O)CNC(=O)c2ccc(Cl)cc2Cl)cc1 ; what inhibition value has been reported?
[reply] 1.4
